These data points were gathered from PubChem BioAssay (EPA / NIEHS).

Assay: BSK_4H_Eotaxin3: BioMAP Diversity Plus: 4H Assay for Eotaxin 3 Biomarker Activity (AID 2283000);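 for outcome: CCL26 protein level quantified by ELISA in parallel with SRB cytotoxicity check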
Conditions: primary human endothelial cells (HUVEC); actives raise or lower the signal
Procedure: BSK_4H is a cell-based, multiplexed-readout assay that uses umbilical vein endothelium, a human vascular primary cell, with measurements taken at 24 hours after chemical dosing in a 96-well plate.BSK_4H_Eotaxin3 is an assay component measured in the BSK_4H assay. It measures Eotaxin-3 antibody related to regulation of gene expression using ELISA technology.Data from the assay component BSK_4H_Eotaxin3 was analyzed into 1 assay endpoint. […]
Active and inactive are the calls of the source. Rule for the calls: active = hit-call score of the fitted dose curve at least 0.9, where 1 is the maximum; inactive = score below 0.9.
Your response should consist of one outcome taken from 1 (active), 0 (inactive)

Illustrative cases are given below, each with its answer.
c1cc2c3c(cccc3c1)CC2	0
CCOP(=S)(OCC)SCS(=O)(=O)CC	0
[N-]=[N+]=[N-]	0
CCOP(=S)(OCC)SCSc1ccc(Cl)cc1	1
N#Cc1c(-c2ccc(Cl)cc2)[nH]c(C(F)(F)F)c1Br	1
O=C(O)C(F)(F)C(F)(F)C(=O)O	0
Cc1c([N+](=O)[O-])cc2c(c1[N+](=O)[O-])C(C)(C)CC2(C)C	1
CC(O)C(F)(F)C(F)(F)F (centres undefined)	0
OCC(F)(F)OC(F)(F)C(F)(F)OC(F)(F)C(F)(F)OC(F)(F)CO	0
CC(C)(C)c1ccccc1OP(=O)(Oc1ccccc1)Oc1ccccc1	1

Problem: // param item: "Nc1ccc([N+](=O)[O-])cc1Cl" ; yields the recorded call
Solution: 0

Problem: // param item: "NC(=O)C(F)(F)C(F)(F)F" ; yields the recorded call
Solution: 0

Problem: // param item: "N#Cc1cc([N+](=O)[O-])ccc1N" ; yields the recorded call
Solution: 1

Problem: // param item: "CCCCc1ccccc1" ; yields the recorded call
Solution: 0

---

Read-out: Collagen III, COL3A1 (gene 1281)
Test: BSK_MyoF_CollagenIII: BioMAP Diversity Plus: MyoF Assay for Collagen III Biomarker Activity (AID 2284239)
Conditions: primary human lung fibroblasts
The source made the active and inactive calls. The calls were made as follows: active = hit-call score of the fitted dose curve at least 0.9, where 1 is the maximum; inactive = score below 0.9.
parameter.measured: AC50

Worked examples, 10 compounds total:
CC(Cl)CN(C)C (stereo not drawn)	inactive
NC(=O)C(F)(F)C(F)(F)F	inactive
CCCCC(CC)COC(=O)c1c(Br)c(Br)c(Br)c(Br)c1C(=O)OCC(CC)CCCC (stereo not drawn)	inactive
O=S(=O)(F)C(F)(F)C(F)(F)C(F)(F)C(F)(F)C(F)(F)C(F)(F)C(F)(F)C(F)(F)F	inactive
N#Cc1cc([N+](=O)[O-])ccc1N	inactive
N#Cc1c(-c2ccc(Cl)cc2)[nH]c(C(F)(F)F)c1Br	630 nM (active)
Nc1ccc([N+](=O)[O-])cc1Cl	inactive
FC(F)(F)C(F)(C(F)(F)F)C(F)(F)C(F)(F)CC1CO1 (stereo not drawn)	inactive
CCOP(=S)(OCC)SCSc1ccc(Cl)cc1	inactive
CC(O)C(F)(F)C(F)(F)F (stereo not drawn)	inactive

Measured AC50 of "COP(=O)(O)OC" : inactive

Measured AC50 of "CCOP(=S)(S)OCC" : inactive

Measured AC50 of "O=C(O)C(F)(F)OC(F)(F)C(F)(F)OC(F)(F)C(=O)O" : inactive

Measured AC50 of O=S1(=O)OCC2C(CO1)C1(Cl)C(Cl)=C(Cl)C2(Cl)C1(Cl)Cl (stereo not drawn) : inactive

Measured AC50 of "Cc1ccc2c(c1N)C(=O)c1ccccc1C2=O" : 1430 nM (active)

Measured AC50 of "CC(C)(C)c1ccccc1OP(=O)(Oc1ccccc1)Oc1ccccc1" : 25200 nM (active)

Measured AC50 of "c1ccc2c(c1)sc1ccccc12" : inactive

Measured AC50 of CCOP(=S)(NC(C)C)Oc1ccccc1C(=O)OC(C)C (stereo not drawn) : inactive
